# system: T1, human GPC3-His protein (human, UniProt P51654 25-559, limits assumed)
# T1 construct: also called human GPC3 protein; not shown: His tag
# protocol-notes: SPR, antibody captured on Protein A chip, human GPC3-His injected, 1:1 Langmuir model;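 also: flow cell at 25 °C, antigen injected for 240 s at five twofold dilutions starting at 200 nM, dissociation followed up to 600 s, double-referenced sensorgrams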
Kd by entry:
Give a bare numeral; the unit nM is implied.

Some solved entries appear below for comparison.
[
  {
    "binder": "hAb001H1L1b (antibody, human IgG1, V domains shown, Humanized F2.169.2) VH: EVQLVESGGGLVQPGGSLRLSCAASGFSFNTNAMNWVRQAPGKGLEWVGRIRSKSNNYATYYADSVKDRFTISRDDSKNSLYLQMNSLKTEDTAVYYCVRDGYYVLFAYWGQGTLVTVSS VL: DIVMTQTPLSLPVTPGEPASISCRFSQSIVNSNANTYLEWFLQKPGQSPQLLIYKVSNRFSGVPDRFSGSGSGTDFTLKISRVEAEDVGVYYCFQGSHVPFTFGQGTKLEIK",
    "property-name": "Kd",
    "measured-value": 19.8
  },
  {
    "binder": "hAb005LH1L1b (antibody, human IgG1, V domains shown, Humanized F3.54.12) VH: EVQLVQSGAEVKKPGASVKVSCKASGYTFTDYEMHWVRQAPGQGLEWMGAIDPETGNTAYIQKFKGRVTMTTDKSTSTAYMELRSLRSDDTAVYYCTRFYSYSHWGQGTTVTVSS VL: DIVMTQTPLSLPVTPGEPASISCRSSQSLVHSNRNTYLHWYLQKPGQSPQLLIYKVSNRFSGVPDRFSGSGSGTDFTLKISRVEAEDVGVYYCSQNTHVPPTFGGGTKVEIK",
    "property-name": "Kd",
    "measured-value": 8.49
  },
  {
    "binder": "hAb001H2L1b (antibody, human IgG1, V domains shown, Humanized F2.169.2) VH: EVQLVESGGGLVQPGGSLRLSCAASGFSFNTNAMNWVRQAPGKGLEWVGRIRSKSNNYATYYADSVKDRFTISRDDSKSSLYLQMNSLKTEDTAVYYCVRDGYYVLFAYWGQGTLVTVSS VL: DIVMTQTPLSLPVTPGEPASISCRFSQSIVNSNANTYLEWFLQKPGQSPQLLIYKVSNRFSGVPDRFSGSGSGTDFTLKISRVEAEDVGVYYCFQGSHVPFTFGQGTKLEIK",
    "property-name": "Kd",
    "measured-value": 19.2
  },
  {
    "binder": "hAb007LH1L1 (antibody, human IgG1, V domains shown, Humanized F3.81.19) VH: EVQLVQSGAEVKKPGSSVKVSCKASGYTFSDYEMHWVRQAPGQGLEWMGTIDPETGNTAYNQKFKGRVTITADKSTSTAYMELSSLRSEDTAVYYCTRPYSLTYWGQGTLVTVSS VL: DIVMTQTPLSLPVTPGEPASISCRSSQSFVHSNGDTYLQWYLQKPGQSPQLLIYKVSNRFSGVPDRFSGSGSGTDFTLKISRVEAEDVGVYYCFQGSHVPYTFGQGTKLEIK",
    "property-name": "Kd",
    "measured-value": 1.05
  }
]

# input Looking for the measured Kd of hAb001H1aL1 (antibody, human IgG1, V domains shown, Humanized F2.169.2) VH: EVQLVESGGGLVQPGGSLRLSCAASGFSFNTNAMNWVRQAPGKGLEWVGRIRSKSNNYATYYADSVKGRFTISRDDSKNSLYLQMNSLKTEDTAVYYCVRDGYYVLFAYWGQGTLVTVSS VL: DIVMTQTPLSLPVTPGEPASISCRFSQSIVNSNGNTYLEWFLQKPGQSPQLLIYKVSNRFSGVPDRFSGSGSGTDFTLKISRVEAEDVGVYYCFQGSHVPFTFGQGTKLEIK , can you help?
# output 27
